Procedure Text: Chemical stability assessment of peptides (relative purity loss)
Assay type: physicochemical
Setup Conditions: 50 mM phosphate buffer pH 6.5 + acetonitrile (1:1); 24 hours at 37° C.
Procedure: Purity of a peptide batch was determined through UPLC/MS (Methods B-G) prior to chemical stability measurement. The target concentration was 1 mg/ml pure compound. […] Prepared solutions were stored for 24 hours at 2° C. and 37° C. […] Then 2 μl of the dilution were analysed with UHPLC-UV. The chemical stability was rated through the relative loss of purity calculated by the equation: […] The purity is calculated as [(peak area peptide)/(total peak area)]*100%.
Starred links: 1 amine or outer side, 2 acyl side, 3 side chain; linkers in the order of their positions; H or OH if unused. Positions of bridges follow the written chain, without caps; N, C: chain ends. Non-standard residues stand in square brackets, D forms with d. Residues, ends and D or L forms follow the SMILES beside them. *: point of attachment. X3 = CN(CCCCC(=O)N[C@@H](CS[*:2])C(=O)[*:1])[*:3]; 2Nal = N[C@@H](Cc1ccc2ccccc2c1)C(=O)O; AEF = NCCOc1ccc(C[C@H](N)C(=O)O)cc1; X4 = CN(CCCCCC(=O)[*:2])[*:1]; αMeL = CC(C)C[C@](C)(N)C(=O)O; Thp = NC1(C(=O)O)CCOCC1; Me2NCH2CH2 = CN(C)CC*; Ava = NCCCCC(=O)O
Measurement Type: Chemical stability (relative purity loss) Buffer pH 6.5 (%)
Write the answer as a number in %, unit excluded.

Observe how each entry below is paired with its result.
CC(=O)NCCCC[C@@H]1NC(=O)[C@H](Cc2c[nH]c3c(C)cccc23)NC(=O)[C@H]([C@@H](C)O)NC(=O)[C@H](CC(N)=O)NC(=O)[C@@H]2CSSC[C@H](NC1=O)C(=O)N[C@@H](Cc1ccc(OCCN(C)C)cc1)C(=O)N[C@H](Cc1ccc3ccccc3c1)C(=O)NC1(CCOCC1)C(=O)N[C@H](C(=O)N[C@@H](CC(N)=O)C(=O)N[C@@H](Cc1cccnc1)C(=O)N(C)CC(N)=O)CCC(=O)NCCCCC(=O)N2 [compound 35] | 1.3
CC(C)C[C@@H](NC(=O)[C@H](CC(N)=O)NC(=O)[C@@H]1CCC(=O)NCCCCC(=O)N[C@H]2CSSC[C@H](NC(=O)[C@H](CCC(N)=O)NC(=O)[C@H](Cc3c[nH]c4ccccc34)NC(=O)[C@H]([C@@H](C)O)NC(=O)[C@H](CC(N)=O)NC2=O)C(=O)N[C@@H](Cc2ccc(OCCN(C)C)cc2)C(=O)N[C@@H](Cc2ccc3ccccc3c2)C(=O)N[C@@](C)(CC(C)C)C(=O)N1)C(N)=O [compound 10] ([Ava]CNTWQCY(Me2NCH2CH2)[2Nal][αMeL]EN[dL]-NH2; disulfide 2-7; lactam N-11) | 0.1
CC(C)C[C@@H](NC(=O)[C@H](CC(N)=O)NC(=O)[C@@H]1CC(=O)N(C)CCCCCC(=O)N[C@H]2CSSC[C@H](NC(=O)[C@H](CCC(N)=O)NC(=O)[C@H](Cc3c[nH]c4ccccc34)NC(=O)[C@H]([C@@H](C)O)NC(=O)[C@H](CC(N)=O)NC2=O)C(=O)N[C@@H](Cc2ccc(OCCN(C)C)cc2)C(=O)N[C@@H](Cc2ccc3ccccc3c2)C(=O)N[C@@](C)(CC(C)C)C(=O)N1)C(N)=O [compound 40] ([X4]CNTWQCY(Me2NCH2CH2)[2Nal][αMeL]DN[dL]-NH2; disulfide 2-7; lactam N-11) | 1.3
CC(=O)N[C@H]1CCCCNC(=O)[C@@H]2CSSC[C@H](NC(=O)[C@H](CCC(N)=O)NC(=O)[C@H](Cc3c[nH]c4ccccc34)NC1=O)C(=O)N[C@@H](Cc1ccc(OCCN)cc1)C(=O)N[C@@H](Cc1ccc3ccccc3c1)C(=O)NC1(CCOCC1)C(=O)N[C@H](C(=O)N[C@@H](CC(N)=O)C(=O)NCC(N)=O)CCC(=O)N(C)CCCCC(=O)N2 [compound 16] (Ac-KWQC[AEF][2Nal][Thp]ENG-NH2; linker 1-4-8 via X3) | 1.1

Okay, next one:
Query block: I'd like to know its Chemical stability (relative purity loss) Buffer pH 6.5. The compound in question is CC(=O)N[C@H]1CCCCNC(=O)[C@@H]2CSSC[C@H](NC(=O)[C@H](CCC(N)=O)NC(=O)[C@H](Cc3c[nH]c4ccccc34)NC1=O)C(=O)N[C@@H](Cc1ccc(OCCN)cc1)C(=O)N[C@@H](Cc1ccc3ccccc3c1)C(=O)NC1(CCOCC1)C(=O)N[C@H](C(=O)N[C@@H](C)C(=O)NCC(N)=O)CCC(=O)N(C)CCCCC(=O)N2 [compound 17] (Ac-KWQC[AEF][2Nal][Thp]EAG-NH2; linker 1-4-8 via X3)
Result block: 0.0
